We begin with a simple list: items and their reported C/S.
EXPERIMENTAL TARGET: cannabinoid peripheral type (CB2) receptor (Rattus norvegicus, UniProt Q9QZN9)
Construct: rat cerebellar membrane fraction and spleen cells were respectively used; from tissue; host or cells: rat spleen cells (male SD rats, 7-9 weeks old)
Sequence (Q9QZN9 whole entry): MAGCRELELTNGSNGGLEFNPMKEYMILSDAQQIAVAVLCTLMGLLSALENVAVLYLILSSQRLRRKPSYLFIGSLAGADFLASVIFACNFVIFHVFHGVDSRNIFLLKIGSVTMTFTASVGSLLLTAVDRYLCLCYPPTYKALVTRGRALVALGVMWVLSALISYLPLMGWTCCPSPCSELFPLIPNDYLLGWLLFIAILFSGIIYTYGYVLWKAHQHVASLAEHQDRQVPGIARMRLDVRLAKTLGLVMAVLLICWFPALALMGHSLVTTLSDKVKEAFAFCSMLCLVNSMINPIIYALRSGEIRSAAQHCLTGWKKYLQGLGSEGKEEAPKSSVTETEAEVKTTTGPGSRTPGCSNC
ASSAY OVERVIEW: Binding assay, cannabinoid peripheral type receptor (CB2), rat spleen cells, [3H]Win55212-2
PARTICULARS: ratio of Ki central receptor (C) to Ki peripheral receptor (S)

[
  {
    "ITEM SMILES": "CCCCCOc1cc(/C=C/C(=O)NCCc2ccc(O)cc2)ccc1OC",
    "C/S": 48
  },
  {
    "ITEM SMILES": "CCCCCOc1cc(/C=C/C(=O)N[C@@H](Cc2ccc(O)cc2)C(=O)OC)ccc1OC",
    "C/S": 343
  }
]

Ask | Lab note: record C/S of "CCCCCNc1cc(C(=O)NCCc2ccc(O)cc2)ccc1OC" tested on cannabinoid peripheral type (CB2) receptor (Rattus norvegicus, UniProt Q9QZN9).
Reply | 455

Ask | Lab note: record C/S of "CCCCCNc1cc(/C=C/C(=O)NCCc2ccc(N)cc2)ccc1OC" tested on cannabinoid peripheral type (CB2) receptor (Rattus norvegicus, UniProt Q9QZN9).
Reply | 16

Ask | Lab note: record C/S of "CCCCCOc1cc(OC)ccc1/C=C/C(=O)N1CCOCC1" tested on cannabinoid peripheral type (CB2) receptor (Rattus norvegicus, UniProt Q9QZN9).
Reply | 67

Ask | Lab note: record C/S of "CCCCCOc1c(OC)ccc2c1C(=O)N(CCc1ccc(O)cc1)C2=O" tested on cannabinoid peripheral type (CB2) receptor (Rattus norvegicus, UniProt Q9QZN9).
Reply | 137

Ask | Lab note: record C/S of "CCCCCOc1c(OC)ccc2c(=O)n(CCc3ccc(O)cc3)ccc12" tested on cannabinoid peripheral type (CB2) receptor (Rattus norvegicus, UniProt Q9QZN9).
Reply | 54

The measurements presented in this section are drawn from patent US6017919A.
